src = ChEMBL document CHEMBL3351951

Parameter: IC50. Scope: all listed entries.
EXPERIMENTAL PROTOCOL: Inhibition of Plasmodium falciparum FabI

Known results for compounds:
> print(dat)
                compound.smiles       result
1  Oc1cc(Cl)ccc1Oc1ccc(Cl)cc1Cl  0.015 µg/mL
2          CCCCCCCCCCCC#CC(=O)O    1.2 µg/mL
3         CCCCCCCCCCCCCCCC(=O)O  > 100 µg/mL

Query compound follows.
Record summary for `CCCCCCCCCCCCCCCC#CC(=O)O` : reported IC50 = 0.3 µg/mL
